Item-by-item account of IC50
molecular target: S. pneumonia PheRS (Streptococcus pneumoniae); assay: tRNA aminoacylation scintillation proximity assay, S. pneumonia PheRS; type: biochemical
ASSAY ENDPOINT: IC50 (µM)

{"COMPOUND": "CCCSc1nnc(CCCn2cnc3ccccc32)n1-c1ccccc1 [16b]", "VALUE": 390}
{"COMPOUND": "CCSc1nnc(CCCn2cnc3ccccc32)n1-c1ccccc1 [16a]", "VALUE": 561}
{"COMPOUND": "CCCSc1nnc(CCCn2cnc3c(N)ncnc32)n1-c1ccccc1 [17b]", "VALUE": 686}
{"COMPOUND": "CCSc1nnc(CCCn2cnc3c(N)ncnc32)n1-c1ccccc1 [17a]", "VALUE": 619}
{"COMPOUND": "COc1cc(OC)cc(C(=O)Nc2nnc(CCn3cnc4ccccc43)s2)c1 [11a]", "VALUE": 345}

* * *

molecular target: S. pneumonia PheRS (Streptococcus pneumoniae, UniProt Q97S36); test: tRNA aminoacylation scintillation proximity assay, S. pneumonia PheRS; assay type: biochemical; settings: read-out: S. pneumonia PheRS IC50; aminoacylation SPA, 0.2 μM enzyme
Sequence (Q97S36 whole entry): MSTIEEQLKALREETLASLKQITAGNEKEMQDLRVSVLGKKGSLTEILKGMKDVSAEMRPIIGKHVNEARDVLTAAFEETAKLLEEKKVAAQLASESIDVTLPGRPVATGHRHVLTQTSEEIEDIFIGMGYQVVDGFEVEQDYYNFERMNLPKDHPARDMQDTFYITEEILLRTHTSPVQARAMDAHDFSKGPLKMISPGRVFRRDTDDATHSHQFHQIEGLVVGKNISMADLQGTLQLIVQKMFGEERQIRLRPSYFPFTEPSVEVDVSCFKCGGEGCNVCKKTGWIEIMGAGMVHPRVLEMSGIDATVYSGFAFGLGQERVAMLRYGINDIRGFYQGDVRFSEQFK
Sequence (Q97S34 whole entry, further chain): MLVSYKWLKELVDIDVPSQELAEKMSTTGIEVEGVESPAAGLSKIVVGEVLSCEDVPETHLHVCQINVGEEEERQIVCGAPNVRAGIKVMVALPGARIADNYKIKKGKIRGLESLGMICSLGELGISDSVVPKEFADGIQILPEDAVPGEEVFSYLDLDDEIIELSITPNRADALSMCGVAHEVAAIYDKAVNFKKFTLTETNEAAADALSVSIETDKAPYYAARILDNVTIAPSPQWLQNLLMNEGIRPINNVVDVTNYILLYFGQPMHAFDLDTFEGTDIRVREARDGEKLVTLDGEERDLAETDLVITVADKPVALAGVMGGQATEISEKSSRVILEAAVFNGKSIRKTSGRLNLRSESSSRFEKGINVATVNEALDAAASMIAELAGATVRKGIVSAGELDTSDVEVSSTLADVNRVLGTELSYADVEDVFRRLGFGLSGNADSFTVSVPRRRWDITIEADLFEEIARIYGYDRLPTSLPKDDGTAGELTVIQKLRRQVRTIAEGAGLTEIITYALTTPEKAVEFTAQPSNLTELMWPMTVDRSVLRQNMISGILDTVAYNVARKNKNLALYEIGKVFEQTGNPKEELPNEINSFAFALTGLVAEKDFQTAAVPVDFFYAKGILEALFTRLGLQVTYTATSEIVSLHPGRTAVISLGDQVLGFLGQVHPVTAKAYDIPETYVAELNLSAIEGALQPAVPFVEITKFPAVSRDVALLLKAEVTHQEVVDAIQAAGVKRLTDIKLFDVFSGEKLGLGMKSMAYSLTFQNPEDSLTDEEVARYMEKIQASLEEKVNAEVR
pIC50: −log10 of the molar value.
ASSAY ENDPOINT: pIC50

{"COMPOUND": "O=C(Nc1nnc(CCn2cnc3ccccc32)s1)c1ccc(F)cc1 [11b]", "VALUE": 3.16}
